molecular target: human ether-à-go-go-related gene (hERG) potassium channel (human, UniProt Q12809); test: primary screen, population patch clamp on CHO cells stably expressing hERG; higher = less effect of the substance;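 further: peak tail current of the secondary pulse compared with the same well before compound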
Sequence (Q12809 whole entry, looked up): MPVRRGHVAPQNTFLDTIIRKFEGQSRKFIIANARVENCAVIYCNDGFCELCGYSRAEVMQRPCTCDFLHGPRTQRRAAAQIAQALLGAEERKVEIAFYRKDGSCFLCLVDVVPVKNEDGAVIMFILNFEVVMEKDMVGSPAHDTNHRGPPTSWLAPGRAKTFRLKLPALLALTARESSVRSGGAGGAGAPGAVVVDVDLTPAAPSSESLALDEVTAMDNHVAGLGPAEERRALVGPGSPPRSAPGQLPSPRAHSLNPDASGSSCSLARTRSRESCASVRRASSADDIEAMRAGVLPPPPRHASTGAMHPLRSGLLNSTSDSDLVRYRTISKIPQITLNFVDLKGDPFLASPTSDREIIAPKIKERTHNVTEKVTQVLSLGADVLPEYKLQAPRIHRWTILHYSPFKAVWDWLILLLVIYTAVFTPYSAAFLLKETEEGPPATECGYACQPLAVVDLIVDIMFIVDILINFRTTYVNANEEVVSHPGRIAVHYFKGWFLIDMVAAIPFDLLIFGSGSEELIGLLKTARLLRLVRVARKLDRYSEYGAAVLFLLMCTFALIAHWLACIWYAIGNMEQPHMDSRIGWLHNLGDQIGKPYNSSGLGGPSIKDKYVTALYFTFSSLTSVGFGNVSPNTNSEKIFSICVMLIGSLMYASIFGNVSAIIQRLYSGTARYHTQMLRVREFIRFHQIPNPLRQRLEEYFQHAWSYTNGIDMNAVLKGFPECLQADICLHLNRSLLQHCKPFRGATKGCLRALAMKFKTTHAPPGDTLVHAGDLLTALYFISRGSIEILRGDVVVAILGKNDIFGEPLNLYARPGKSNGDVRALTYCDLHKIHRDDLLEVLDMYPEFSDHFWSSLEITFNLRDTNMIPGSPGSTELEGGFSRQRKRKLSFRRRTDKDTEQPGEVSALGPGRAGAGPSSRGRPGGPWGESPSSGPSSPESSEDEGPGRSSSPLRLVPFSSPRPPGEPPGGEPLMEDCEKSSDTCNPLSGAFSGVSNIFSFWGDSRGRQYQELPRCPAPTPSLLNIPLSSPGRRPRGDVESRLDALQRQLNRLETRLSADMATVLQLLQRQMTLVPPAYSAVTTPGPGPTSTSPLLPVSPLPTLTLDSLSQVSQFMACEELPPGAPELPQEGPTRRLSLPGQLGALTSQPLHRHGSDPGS
The campaign covered roughly 310,000 compounds. About 14,000 (4.5%) showed an effect of 50% or more. Effects have a minus sign here. The sample as a whole holds a higher share of strong results than the screen did.
Hi there, I'd appreciate the recorded hERG current change (%, negative = inhibition) at 10uM for every entry that follows.

Parameters: items (list). Returns: hERG current change (%, negative = inhibition) at 10uM for each item.
1. CC(C)CNC(=O)c1ccccc1NC(=O)CCSc1ccccc1
2. CN(CC(=O)Nc1cccc(C#N)c1)Cc1ccc(Cl)cc1
3. CC1(C)CC(NS(=O)(=O)c2ccc(Cl)cc2)CC(C)(C)N1

Key:
1: -17.6%; 2: -34.1%; 3: 9.34%

Exercise: Return hERG current change (%, negative = inhibition) at 10uM (reported value) for this molecule: Cc1ccccc1S(=O)(=O)N(CC(O)CN1C(=O)NC(C)(C)C1=O)c1ccccc1 (stereo not shown)
Key: 1.47%
